# assay system: GLP-1R (Homo sapiens, UniProt P43220)
# Sequence (P43220 24-463): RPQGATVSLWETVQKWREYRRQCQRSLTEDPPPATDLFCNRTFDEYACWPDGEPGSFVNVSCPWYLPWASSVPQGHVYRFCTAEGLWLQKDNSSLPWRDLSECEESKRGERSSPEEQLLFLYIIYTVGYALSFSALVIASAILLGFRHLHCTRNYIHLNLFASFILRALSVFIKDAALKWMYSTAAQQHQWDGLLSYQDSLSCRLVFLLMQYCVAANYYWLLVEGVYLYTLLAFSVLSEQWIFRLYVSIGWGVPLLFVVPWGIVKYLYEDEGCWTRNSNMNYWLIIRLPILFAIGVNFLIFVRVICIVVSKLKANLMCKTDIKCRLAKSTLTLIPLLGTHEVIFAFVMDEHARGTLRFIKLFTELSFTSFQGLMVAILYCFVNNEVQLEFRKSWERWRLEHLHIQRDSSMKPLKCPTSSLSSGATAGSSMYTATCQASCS
# assay details: GLP-1R activation: cAMP increase in CHO cells stably expressing GLP-1R
# Format: cell-based
# condition summary: cAMP increase, CHO cells stably expressing GLP-1R, 10 point dose response, 30 minutes incubation; read-out: EC50

# compound, assay system, EC50 (pM)
records = [
    ("N#Cc1ccc(COc2nc(-c3ccc(Cc4nc5c(F)cc(C(=O)O)cc5n4C[C@@H]4CCO4)cc3F)ncc2F)c(F)c1 [Example 666]", "GLP-1R (Homo sapiens, UniProt P43220)", 510),
    ("COCCn1c(Cc2cnc(-c3cccc(OCc4ccc(C#N)cc4F)n3)cn2)nc2ccc(C(=O)O)cc21 [Example 102]", "GLP-1R (Homo sapiens, UniProt P43220)", 56500),
    ("N#Cc1ccc(COc2ncc(F)c(-c3ccc(Cc4nc5c(F)cc(C(=O)O)cc5n4C[C@@H]4CCO4)cc3F)n2)c(F)c1 [Example 881]", "GLP-1R (Homo sapiens, UniProt P43220)", 290),
    ("NC(=O)c1ccc(COc2cccc(-c3cc(F)c(Cc4nc5ccc(C(=O)O)cc5n4C[C@@H]4CCO4)cc3F)n2)cn1 [Example 826]", "GLP-1R (Homo sapiens, UniProt P43220)", 280),
]

* * *

// reported Predicted Hepatic Clearance (Pred. Cl.) for each item listed
# assay details: Microsomal stability, human liver microsomes (predicted hepatic clearance)
# condition summary: predicted from in vitro microsomal stability data
readout name: Predicted Hepatic Clearance (Pred. Cl.) (mL/min/kg)

# compound, qualifier sign, quantitative readout
measured = [
    ("Cn1nnc(Cn2c(Cc3ccc(-c4cccc(OCc5ccc(C#N)cc5F)n4)cc3F)nc3ccc(C(=O)O)cc32)n1 [Example 226]", "=", 3.67),
    ("COC(C)(C)Cn1c(Cc2cc(F)c(-c3cccc(OCc4ccc(C#N)cc4F)n3)cc2F)nc2ccc(C(=O)O)cc21 [Example 586]", "=", 7.67),
    ("N#Cc1ccc(COc2cccc(-c3ccc(Cc4nc5ccc(C(=O)O)cc5n4C[C@@H]4CCCO4)c(F)c3)n2)c(F)c1 [Example 194]", "=", 4.67),
    ("COC(CNC(C)=O)Cn1c(Cc2ccc(-c3cccc(OCc4ccc(C#N)cc4F)n3)cc2F)nc2ccc(C(=O)O)cc21 (single isomer, unassigned) [Example 342]", "=", 4),
    ("COCCn1c(Cc2ccc(-c3cccc(OCc4ccc(C#N)cc4F)n3)cc2F)nc2ccc(C3(C(=O)O)CC3)cc21 [Example 210]", "=", 4.42),
    ("COCCn1c(Cc2ccc(-c3cccc(OCc4ccc(C#N)c5ccoc45)n3)cc2F)nc2ccc(C(=O)O)cc21 [Example 135]", "<", 1.83),
]

* * *

# assay system: GLP-1R (Homo sapiens)
# assay details: GLP-1R activation: cAMP increase in CHO cells stably expressing GLP-1R
# Type: cell-based
# condition summary: cAMP increase, CHO cells stably expressing GLP-1R, 10 point dose response, 30 minutes incubation; read-out: EC50
pEC50: −log10 of the molar value.
Property: pEC50; scope: individual compounds

# compound string, pEC50
measured = [
    ("COCCn1c(Cc2ccc(-c3cccc(OCc4ccc(C#N)c5ccoc45)n3)cc2F)nc2ccc(C(=O)O)cc21", 8.75),
    ("COCCn1c(Cc2ccc(-c3csc(OCc4ccc(C#N)cc4F)n3)cc2F)nc2ccc(C(=O)O)cc21", 6.94),
    ("COCCn1c(Cc2ccc(-c3cccc(OCc4ccc(C#N)cc4F)n3)cc2OC(F)F)nc2ccc(C(=O)O)cc21", 7.42),
    ("N#Cc1ccc(COc2cccc(-c3ccc(Cc4nc5ccc(C(=O)O)cc5n4CC4CCC4)c(F)c3)n2)c(F)c1", 8.06),
]
